target: T1, human chemokine (C-C motif) receptor 8 (CCR8) (human, UniProt P51685 1-355); assay: flow cytometry blocking, PBMC CCR8+ CD4+ cells; competitor PE-AB15 (its MFI is read)
T1 construct: On human peripheral blood lymphocytes / PBMC (native) or on human CCR8 GFP-transfected Ba/F3 cells; also called hCCR8; human CCR8
T1 sequence (P51685 whole entry): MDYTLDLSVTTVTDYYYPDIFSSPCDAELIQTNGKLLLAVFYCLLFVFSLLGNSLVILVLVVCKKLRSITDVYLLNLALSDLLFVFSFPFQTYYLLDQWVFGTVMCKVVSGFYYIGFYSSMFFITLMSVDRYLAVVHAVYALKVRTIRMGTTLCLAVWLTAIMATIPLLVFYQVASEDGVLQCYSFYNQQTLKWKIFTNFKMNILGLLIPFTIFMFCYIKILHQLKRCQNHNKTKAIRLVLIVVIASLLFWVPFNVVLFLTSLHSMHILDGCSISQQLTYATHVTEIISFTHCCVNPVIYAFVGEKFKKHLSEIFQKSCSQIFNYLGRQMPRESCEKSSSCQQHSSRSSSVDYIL
quantity_name: MFI
The answer should be written as a number, with no unit following it.

Would you please look over these solved cases?
binder: AB13 (antibody, V domains shown, Hybridoma monoclonal; also called antibody 13; clone 13) VH: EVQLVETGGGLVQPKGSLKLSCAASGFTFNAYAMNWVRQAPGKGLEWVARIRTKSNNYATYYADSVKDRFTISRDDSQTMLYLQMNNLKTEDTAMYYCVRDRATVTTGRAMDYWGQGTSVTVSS VL: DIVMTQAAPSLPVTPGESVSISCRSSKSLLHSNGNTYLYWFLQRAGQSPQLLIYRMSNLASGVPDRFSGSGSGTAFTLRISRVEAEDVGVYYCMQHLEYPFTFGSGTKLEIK
assay_result: 919
//
binder: AB5 (antibody, V domains shown, Hybridoma monoclonal; also called antibody 5; clone 5) VH: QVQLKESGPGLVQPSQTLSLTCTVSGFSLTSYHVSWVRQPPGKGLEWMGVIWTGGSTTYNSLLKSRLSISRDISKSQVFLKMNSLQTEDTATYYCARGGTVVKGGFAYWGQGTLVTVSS VL: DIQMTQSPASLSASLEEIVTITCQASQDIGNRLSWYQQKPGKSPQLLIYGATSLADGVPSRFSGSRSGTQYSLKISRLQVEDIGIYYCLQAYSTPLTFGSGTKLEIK
assay_result: 845

From here, focus on the item given below.
Could you tell me which MFI is on file for AB15 (antibody, V domains shown, Hybridoma monoclonal; also called antibody 15; clone 15) VH: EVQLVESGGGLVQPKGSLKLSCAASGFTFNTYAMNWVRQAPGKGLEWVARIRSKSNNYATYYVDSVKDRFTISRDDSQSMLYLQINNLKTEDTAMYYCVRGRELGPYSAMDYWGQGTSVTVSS VL: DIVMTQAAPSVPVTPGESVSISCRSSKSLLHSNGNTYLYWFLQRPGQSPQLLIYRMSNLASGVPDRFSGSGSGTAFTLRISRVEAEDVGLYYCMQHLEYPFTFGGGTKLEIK ?
639
